assay: HFrEF study Part 1 (SAD Cohorts 1 and 2): plasma pharmacokinetics; type: in vivo, human; conditions: human, plasma, oral, 350 mg, SAD Cohort 1, 350 mg (n = 8); read-out: Cmax
Measurement Type: Cmax
Hey, just the number and the unit after it is fine.

Look up Cmax: Cn1cc(S(=O)(=O)[C@@](C)(F)C2CCN(C(=O)Nc3ccon3)CC2)c(C(F)F)n1
2760 ng/mL

* * *

assay: Food effect cross-over study, 200 mg (25 mg tablets), healthy volunteers: plasma pharmacokinetics; type: in vivo, human; conditions: human, plasma, oral, 5 hours postdose, Fasted, read-out: Plasma concentration, Geometric Mean
Measurement Type: concentration at 5 h (ng/mL)
Answers are plain numbers, in ng/mL.

Look up concentration at 5 h: Cn1cc(S(=O)(=O)[C@@](C)(F)C2CCN(C(=O)Nc3ccon3)CC2)c(C(F)F)n1 [Compound I]
2270
